assay: chemical genetic growth profiling, strain panel (AID 1159580);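 note: tested at 20 µM; growth read once vehicle control cultures reached saturation at 30 °C; 1 = growth at the plate median or of vehicle wells; lower values mean less growth of the strain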; conditions: S. cerevisiae deletion strains, growth OD, locus YNL307C, strain MCK1, active compounds read low
Hit rate of the full screen: of about 5,500 compounds, about 2,000 (36%) were called active. About 18% were inconclusive and are not listed. The list shows a part of the results.
RESULT_TYPE: normalized growth
Give bare numbers.

>  <MOLECULE>
CC(=O)O[C@@H]1CC2C(C)(C)C=CC(=O)[C@]2(C)C2CC[C@@]3(C)[C@H](c4ccoc4)OC(=O)C4OC43[C@@]21C (stereo not given in full)

>  <normalized growth>
0.993

$$$$
>  <MOLECULE>
COc1cc(C(=O)NCc2ccc(OCCN(C)C)cc2)cc(OC)c1OC

>  <normalized growth>
0.98

$$$$
>  <MOLECULE>
CN1C(CC(=O)c2ccccc2)CCCC1CC(O)c1ccccc1 (stereo not given)

>  <normalized growth>
0.992

$$$$
>  <MOLECULE>
CC1(C)C(=O)C=CC2(C)C3CCC4(C)C(c5ccoc5)CC5OC54C3C(O)CC12 (stereo not given)

>  <normalized growth>
1

$$$$

# lookup: normalized growth of `CC/C(=C(\c1ccccc1)c1ccc(OCCN(C)C)cc1)c1ccccc1`
0.0675

* * *

assay: chemical genetic growth profiling, strain panel (AID 1159580);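 note: tested at 20 µM; growth read once vehicle control cultures reached saturation at 30 °C; 1 = growth at the plate median or of vehicle wells; lower values mean less growth of the strain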; conditions: S. cerevisiae deletion strains, growth OD, locus YJL129C, strain trk1
The whole screen tested about 5,500 compounds, of which about 2,000 (36%) were called active. Not shown: some 18% with an inconclusive outcome. Rule as the data show it: active = normalized growth mostly below about 0.91 (no sharp cut-off); inconclusive = no clear call, values can overlap the other calls; inactive = mostly above about 0.92. Some of the results follow.
The categories you may choose from are Yes (active), No (inactive)

Below are worked cases with known answers.
>  <COMPOUND>
Oc1c(I)cc(Cl)c2cccnc12

>  <LABEL_CLASS>
Yes

$$$$
>  <COMPOUND>
CC(=O)Nc1ccc(S(=O)(=O)c2ccc(NC(C)=O)cc2)cc1

>  <LABEL_CLASS>
No

$$$$
>  <COMPOUND>
Cc1ccc2c(Cl)cc(Cl)c(O)c2n1

>  <LABEL_CLASS>
No

$$$$

Okay, next one:
Each compound tested received a call. Report the one for CC(=O)O[C@H]1C[C@@H](OC(C)=O)C(C)(C)C2C[C@@H](OC(C)=O)[C@@]3(C)C4=CC(=O)O[C@@H](c5ccoc5)[C@]4(C)CCC3[C@]21C (some centres not stated) .
No

* * *

assay: chemical genetic growth profiling, strain panel (AID 1159580);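 note: tested at 20 µM; growth read once vehicle control cultures reached saturation at 30 °C; 1 = growth at the plate median or of vehicle wells; lower values mean less growth of the strain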; details: S. cerevisiae deletion strains, growth OD, locus YHR082C, strain KSP1, active compounds read low
Among all 5,500 compounds or so, about 2,000 (36%) were called active. Inconclusive results (about 18%) are left out. This is one part of the list.
For each record, write down the corresponding normalized growth.
Answers are plain numbers.

Check out these entries, answers already filled in.
>  <COMPOUND>
O=S(=O)(N/N=C\c1ccc(Cl)cc1)c1ccc(-c2ccccn2)s1

>  <RESULT_TYPE>
normalized growth

>  <RESULT_VALUE>
1.02

$$$$
>  <COMPOUND>
O=C(NCCSCc1cccc(C(F)(F)F)c1)c1ccc(Cl)cc1

>  <RESULT_TYPE>
normalized growth

>  <RESULT_VALUE>
0.871

$$$$
>  <COMPOUND>
N#CCC(=O)NNC(=S)Nc1ccc(Cl)c(Cl)c1

>  <RESULT_TYPE>
normalized growth

>  <RESULT_VALUE>
1.04

$$$$

State the recorded normalized growth for every item in the following list.
1. Cn1c(CSCCOc2ccccc2)nnc1SCc1ccc(Cl)cc1Cl
2. O=C(NCCSCc1ccco1)Nc1cc(Cl)cc(Cl)c1
3. Cc1c(C)c(C)c(CSC(N)=Nc2ccc(F)cc2)c(C)c1C
4. Cc1ccc(S(=O)(=O)CCSC2=CC(=O)CC(C)(C)S2)cc1
5. OC(CNCc1ccc(Cl)cc1)CO/N=C\C1=C(Cl)c2cc(Cl)ccc2OC1 (stereo unspecified)
6. NC(=Nc1ccc(F)cc1)SCc1c(Cl)cccc1Cl
7. Cc1nn(Cc2ccc(C(=O)Sc3ccc(C(F)(F)F)cn3)o2)c(C)c1Br

1: 1.02; 2: 0.866; 3: 1.02; 4: 1.08; 5: 0.966; 6: 1.05; 7: 0.763

# lookup: normalized growth of O=C1CSC(c2cccnc2)N1c1ccc(Cl)cc1Cl (stereo unspecified)
0.932

* * *

assay: chemical genetic growth profiling, strain panel (AID 1159580);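 note: tested at 20 µM; growth read once vehicle control cultures reached saturation at 30 °C; 1 = growth at the plate median or of vehicle wells; lower values mean less growth of the strain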; details: S. cerevisiae deletion strains, growth OD, locus YKL085W, strain MDH1 (second series), active compounds read low
Out of some 5,500 compounds screened, about 2,000 (36%) were called active. Not shown: some 18% with an inconclusive outcome. The list shows a part of the results.
RESULT_TYPE: normalized growth
Numbers only.

>  <COMPOUND>
COC(=O)Oc1ccccc1C(=O)O

>  <RESULT_VALUE>
1.01

$$$$

State the recorded normalized growth for every item in the following list.
1. COc1ccccc1OCCNCC(O)COc1cccc2[nH]c3ccccc3c12 (stereo not drawn)
2. O=C1C=CC2=C3c4cc(O)c(O)cc4CC3(O)COC2=C1O (stereo not drawn)
3. O=C(O)CCC(=O)C(=O)O
4. O=C1C=CC2=C3c4cc(O)c(O)cc4C[C@@]3(O)COC2=C1
5. Nc1ccc(S(=O)(=O)Nc2ccc(Cl)nn2)cc1

[1.01, 1.02, 1.01, 1.01, 0.992]

State the recorded normalized growth for every item in the following list.
1. CCCCC(CC)CN1CN(CC(CC)CCCC)CC(C)(N)C1 (stereo not drawn)
2. O=C(O)c1cccnc1Nc1cccc(C(F)(F)F)c1
3. CC(C)(C)NCC(O)c1ccccc1Cl (stereo not drawn)

1: 0.994; 2: 0.916; 3: 0.983

State the recorded normalized growth for every item in the following list.
1. O=C(OC1Cc2c(O)cc(O)cc2OC1c1cc(O)c(O)c(O)c1-c1c(C2Oc3cc(O)cc(O)c3CC2OC(=O)c2cc(O)c(O)c(O)c2)cc(O)c(O)c1O)c1cc(O)c(O)c(O)c1 (stereo not drawn)
2. COc1cc2c(c(OC)c1OC)-c1ccc(OC)c(=O)cc1[C@@H](NC(C)=O)CC2
3. CC(=O)NCCCCCC(=O)O
4. CC1(C)CC2C1(O)CCC1(C)C=CC(O)C21CO (stereo not drawn)
5. C=CC(C1=CC(=O)C=CC1=O)c1ccccc1 (stereo not drawn)

0.991
1.06
0.989
0.976
0.978

State the recorded normalized growth for every item in the following list.
1. O=C1O[C@H](C(O)CO)C(O)=C1O (stereo partly drawn)
2. C/C=C/c1ccc2c(c1)OCO2
3. NC(=NCCC[C@H](N)C(=O)O)NC(CCC(=O)O)C(=O)O (stereo partly drawn)
4. C=C(CC)C(=O)c1ccc(OCC(=O)O)c(Cl)c1Cl
5. Nc1ccc(S(=O)(=O)Nc2ccccn2)cc1
6. O=C(O)c1ccccc1Nc1cccc(C(F)(F)F)c1
7. C=C(C)[C@H]1CC=C(C(=O)O)CC1

1. 0.992
2. 1.01
3. 1.01
4. 0.938
5. 0.982
6. 0.957
7. 0.84

State the recorded normalized growth for every item in the following list.
1. C=CC(C1=CC(=O)C(OC)=CC1=O)c1ccccc1 (stereo not drawn)
2. CC/C(=C(\c1ccccc1)c1ccc(OCCN(C)C)cc1)c1ccccc1
3. N[C@@H](Cc1ccc(O)c(O)c1)C(=O)O
4. CN1C(CC(=O)c2ccccc2)CCCC1CC(O)c1ccccc1 (stereo not drawn)
5. CCN(CC)CCOc1ccc2c(c1)C(=O)c1cc(OCCN(CC)CC)ccc1-2
6. OC[C@@H]1CCCN2CCCC[C@H]12

0.954
0.952
1
0.989
1.02
1

State the recorded normalized growth for every item in the following list.
1. O=C(O)/C=C/C=C/c1ccccc1
2. COc1cc2c(c(OC)c1OC)-c1ccc(O)c(=O)cc1[C@@H](NC(C)=O)CC2
3. C=C[C@@H](C1=CC(=O)C(OC)=C(OC)C1=O)c1ccccc1
4. Oc1c(I)cc(I)c2cccnc12
5. c1ccc2c3c([nH]c2c1)CNCC3

0.773
0.91
0.936
0.253
1

State the recorded normalized growth for every item in the following list.
1. CC1(C)C(C(Cl)Cl)C2(Cl)C(Cl)C(Cl)C1(Cl)C2(Cl)Cl (stereo not drawn)
2. CS(=O)(=O)CCCCN=C=S
3. OC[C@@H](O)[C@@H](O[C@@H]1O[C@H](CO)[C@@H](O)[C@H](O)[C@H]1O)[C@H](O)[C@@H](O)CO
4. C=CC(C1=CC(=O)C(OC)=CC1=O)c1ccc(O)cc1 (stereo not drawn)
5. CN(C)CCOC(C)(c1ccccc1)c1ccccn1 (stereo not drawn)

1. 0.973
2. 1
3. 0.998
4. 0.987
5. 0.971

State the recorded normalized growth for every item in the following list.
1. CCC(Cc1c(I)cc(I)c(N)c1I)C(=O)O (stereo not drawn)
2. CC(Cc1ccc(O)c(O)c1)C(C)Cc1ccc(O)c(O)c1 (stereo not drawn)
3. C=CC(C1=CC(=O)C(OC)=CC1=O)c1ccc(OC)cc1 (stereo not drawn)
4. O=[N+]([O-])c1cc(O)c(O)c([N+](=O)[O-])c1
5. C[C@H]1[C@H]2CCC3C4CC=C5C[C@@H](N(C)C)CC[C@]5(C)C4CC[C@@]32CN1C (stereo partly drawn)
6. O=C(O[C@@H]1Cc2c(O)cc(O)cc2O[C@@H]1c1cc(O)c(O)c(O)c1-c1c([C@H]2Oc3cc(O)cc(O)c3C[C@H]2O)cc(O)c(O)c1O)c1cc(O)c(O)c(O)c1

1. 0.982
2. 0.992
3. 0.966
4. 0.97
5. 0.997
6. 0.994
